The measured values listed here are drawn from the kinase profiling compilation of Christmann-Franck et al. (2016).

What residual activity was measured for each of the following?
biological target: TEK (human); experiment: radiometric filter-binding kinase assay, Kinase HotSpot; settings: compound 0.5 µM; ATP 10 µM
One number for each entry, in %.

Examples with their reported residual activity follow.
chemical.string	unit.name	residual activity
FC(F)(F)c1ccc(/C=C/c2nc(COc3ccc(CCCCn4ccnn4)cc3)co2)cc1	%	95.8
COc1cc2ncnc(Nc3ccc(O)c(Br)c3)c2cc1OC	%	93.8
O=c1cc(N2CCOCC2)oc2c(-c3ccccc3)cccc12	%	89.2
CCOc1cc2ncnc(Nc3cccc(Br)c3)c2cc1OCC	%	96.4
Cn1cc(/C=C2\C(=O)Nc3ccc(S(N)(=O)=O)cc32)c2ccccc21	%	95.8
COc1cc2c(N3CCN(C(=O)Nc4ccc(OC(C)C)cc4)CC3)ncnc2cc1OCCCN1CCCCC1	%	99.6
N#C/C(=C1/Nc2ccccc2S1)c1ccnc(NCCc2cccnc2)n1	%	97.5
Nc1ncnc2c1cnn2-c1ccccc1	%	92.2
N#CCCc1ccc2c(c1)-c1[nH]c3ccc([N+](=O)[O-])cc3c1CC(=O)N2	%	97.6

Then this molecule:
(Q) Notebook entry, TEK (human) assay: residual activity of O=c1c2ccccc2[nH]c(=S)n1CCN1CCC(=C(c2ccc(F)cc2)c2ccc(F)cc2)CC1 = ?
(A) 96.1
